Listing of recorded solubility (g/100 g solution) by entry.
procedure_summary: xn = mol fraction of the nth substance listed, in the solute-free solvent
condition_label: 288.15 K; x2 = 0.3
Field format: numeric only.

{"columns": ["molecule", "solubility (g/100 g solution)"],
 "data": [
  ["O=CC(O)C(O)C(O)CO (centres undefined) + CO + ClCCl", 1.33]
]}

Please fill in: solubility (g/100 g solution) reported for Cc1nc(C)c(C)nc1C + CO + CC#N = 31.8

Please fill in: solubility (g/100 g solution) reported for Cc1nc(C)c(C)nc1C + CCCCO + CC#N = 30.9

Please fill in: solubility (g/100 g solution) reported for O=CC(O)C(O)C(O)CO (centres undefined) + CCO + ClCCl = 0.813

----------
Listing of recorded solubility (g/100 g solution) by entry.
procedure_summary: xn = mol fraction of the nth substance listed, in the solute-free solvent
condition_label: 308.15 K; x2 = 0.8

{"columns": ["molecule", "value_reported"],
 "data": [
  ["Cc1nc(C)c(C)nc1C + CCCCO + CC#N", 49.6],
  ["Cc1nc(C)c(C)nc1C + CO + CC#N", 64.9],
  ["Cl.NC(C=O)C(O)C(O)C(O)CO (stereo not given) + O + CO", 16.7],
  ["O=c1cc(-c2ccccc2)oc2cc(O)c(O)c(O)c12 + CCO + O", 0.831]
]}

Then there is this molecule:
Please fill in: solubility (g/100 g solution) reported for Cl.NC(C=O)C(O)C(O)C(O)CO (stereo not given) + O + CCO = 11.8

----------
Listing of recorded solubility (g/100 g solution) by entry.
procedure_summary: xn = mol fraction of the nth substance listed, in the solute-free solvent
condition_label: 308.15 K; x2 = 0.6
Field format: numeric only.

{"columns": ["molecule", "value_reported"],
 "data": [
  ["O=c1cc(-c2ccccc2)oc2cc(O)c(O)c(O)c12 + CCO + O", 0.795]
]}

Please fill in: solubility (g/100 g solution) reported for Cc1nc(C)c(C)nc1C + CO + CC#N = 60.5

Please fill in: solubility (g/100 g solution) reported for Cl.NC(C=O)C(O)C(O)C(O)CO (stereo not given) + O + CO = 8.23

Please fill in: solubility (g/100 g solution) reported for Cc1nc(C)c(C)nc1C + CCCCO + CC#N = 50

Please fill in: solubility (g/100 g solution) reported for Cl.NC(C=O)C(O)C(O)C(O)CO (stereo not given) + O + CCO = 3.91

----------
procedure_summary: xn = mol fraction of the nth substance listed, in the solute-free solvent
condition_label: 298.15 K; x2 = 0.2
Listing of recorded solubility (g/100 g solution) by entry.
Field format: numeric only.

Would you please look over these solved cases?
{"columns": ["compound", "solubility (g/100 g solution)"],
 "data": [
  ["O=CC(O)C(O)C(O)CO (stereo unspecified) + CO + ClCCl", 0.774],
  ["Cc1nc(C)c(C)nc1C + CCCCO + CC#N", 34.6],
  ["O=c1cc(-c2ccccc2)oc2cc(O)c(O)c(O)c12 + CCO + O", 0.0809],
  ["Cl.NC(C=O)C(O)C(O)C(O)CO (stereo unspecified) + O + CO", 1.23],
  ["O=CC(O)C(O)C(O)CO (stereo unspecified) + CCO + ClCCl", 0.645]
]}

Then there is this compound:
Please fill in: solubility (g/100 g solution) reported for Cc1nc(C)c(C)nc1C + CO + CC#N = 34.9
